Test system: MT4
EXPERIMENT: Anti-HIV activity was determined as dose required to protect 50% of the HIV-infected MT-4 cells against destruction
Type: functional, Homo sapiens
TEST_SETTINGS: Homo sapiens, MT4; read-out: ED50 (the source's name)
Attribute: EC50
Just the number in µM, nothing appended.

Some solved entries appear below for comparison.
Nc1ncnc2c1ncn2[C@H]1CC[C@@H](CO)O1 : 6.2
Nc1ncnc2c1ncn2[C@@H]1O[C@H](CO)C[C@@H]1F : 35
Cc1cn([C@H]2C[C@H](N=[N+]=[N-])[C@@H](CO)O2)c(=O)[nH]c1=O : 0.006

Now for a further molecule.
Query :: Could you share which EC50 value was measured for [N-]=[N+]=N[C@H]1C[C@@H](CO)O[C@H]1n1cnc2c(N)ncnc21 ?
Result :: 55
